Target: T1, sIL-6R (soluble IL-6 receptor; SBH Sciences) (human, UniProt P08887 20-365)
T1 construct: also called human IL-6R
T1 sequence: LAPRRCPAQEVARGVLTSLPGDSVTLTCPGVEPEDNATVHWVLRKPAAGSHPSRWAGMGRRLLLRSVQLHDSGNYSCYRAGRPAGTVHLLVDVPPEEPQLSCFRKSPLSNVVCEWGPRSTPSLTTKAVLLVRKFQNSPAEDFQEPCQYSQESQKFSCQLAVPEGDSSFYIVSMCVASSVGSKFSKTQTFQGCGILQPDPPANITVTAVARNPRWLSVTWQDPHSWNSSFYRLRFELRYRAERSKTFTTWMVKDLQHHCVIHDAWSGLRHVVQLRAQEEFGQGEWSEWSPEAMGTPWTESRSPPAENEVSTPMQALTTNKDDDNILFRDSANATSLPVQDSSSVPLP
Experiment: SPR (BIAcore 3000), antibody on chip, sIL-6R analyte, 25 C
Parameter: pKd
Give bare numbers, as −log10 of the molar value.

Binder	Reported Value
229# (antibody, human IgG1, kappa, V domains shown) VH: QVQLQESGPGLVRPSQTLSLTCTVSGYSITSDHAWSWVRQPPGRGLEWIGYISYSGMITYNPSLKSRVTMLRDTSKNQFSLRLSSVTAADTAVYYCARSLARMTAIDFWGQGSLVTVSS VL: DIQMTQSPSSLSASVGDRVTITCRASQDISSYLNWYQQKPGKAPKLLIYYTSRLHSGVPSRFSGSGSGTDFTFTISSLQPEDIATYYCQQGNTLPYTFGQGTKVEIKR	9.22

// next item, pKd requested
Exam item: Consider the binder 242# (antibody, human IgG1, kappa, V domains shown, also called Sample # 242) VH: QVQLQESGPGLVRPSQTLSLTCTVSGYSITSDHAWSWVRQPPGRGLEWIGYISYSGMITYNPSLKSRVTMLRDTSKNQFSLRLSSVTAADTAVYYCARSLARMTAIDFWGQGSLVTVSS VL: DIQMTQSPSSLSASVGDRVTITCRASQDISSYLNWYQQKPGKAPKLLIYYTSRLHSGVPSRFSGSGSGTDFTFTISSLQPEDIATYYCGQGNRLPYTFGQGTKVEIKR . State its measured pKd.
Marked response: 8.91
